# system: Ribosomal RNA A-site
# protocol-details: Binding affinity to bacterial ribosomal A site RNA oligonucleotide
# Lookup of reported log10 Kd keyed by entry
measurement-kind: log10 Kd (log10 of the value in µM)

[[record]]
molecule = "NC[C@H]1O[C@H](O[C@H]2[C@H](O[C@@H]3O[C@H](CO)[C@@H](O)[C@H]3O)[C@@H](O)[C@H](N)C[C@@H]2N)[C@H](N)[C@@H](O)[C@@H]1O [RIBOSTAMYCIN]"
measurement_kind = "log10 Kd"
val = 1.21

[[record]]
molecule = "NC[C@H]1O[C@H](O[C@H]2[C@H](O)[C@@H](O)[C@H](N)C[C@@H]2N)[C@H](N)[C@@H](O)[C@@H]1O [NEAMINE]"
measurement_kind = "log10 Kd"
val = 0.87

[[record]]
molecule = "NC[C@@H]1O[C@H](O[C@H]2[C@@H](O)[C@H](O[C@@H]3[C@@H](O)[C@H](N)C[C@H](N)[C@H]3O[C@H]3O[C@H](CO)[C@@H](O)[C@H](O)[C@H]3N)O[C@@H]2CO)[C@H](N)[C@@H](O)[C@@H]1O [PAROMOMYCIN]"
measurement_kind = "log10 Kd"
val = -0.41

[[record]]
molecule = "CN[C@@H]1[C@H](O)[C@@H](O[C@@H]2[C@@H](O)[C@H](O[C@H]3O[C@H](CN)CC[C@H]3N)[C@@H](N)C[C@H]2N)OC[C@]1(C)O [GENTAMICIN C]"
measurement_kind = "log10 Kd"
val = 0.74

[[record]]
molecule = "CN[C@@H]1[C@@H](O)[C@@H](O[C@@H]2[C@@H](O)[C@H](O[C@H]3O[C@H]([C@@H](C)O)[C@@H](O)[C@H](O)[C@H]3N)[C@@H](N)C[C@H]2N)OC[C@]1(C)O [GENETICIN]"
measurement_kind = "log10 Kd"
val = 1.16

